biological target: TDO2 (Homo sapiens, UniProt P48775); construct: decreased levels of NFK in SW48 cells (high TDO expressing cells); experiment: TDO2 cell assay (NFK GreenScreen, SW48 cells); type: cell-based; conditions: SW48 cells (high TDO expressing), 200 uM tryptophan, 24 hours; Table 3; read-out: TDO2 Cell Fluor EC50
Sequence (P48775 whole entry): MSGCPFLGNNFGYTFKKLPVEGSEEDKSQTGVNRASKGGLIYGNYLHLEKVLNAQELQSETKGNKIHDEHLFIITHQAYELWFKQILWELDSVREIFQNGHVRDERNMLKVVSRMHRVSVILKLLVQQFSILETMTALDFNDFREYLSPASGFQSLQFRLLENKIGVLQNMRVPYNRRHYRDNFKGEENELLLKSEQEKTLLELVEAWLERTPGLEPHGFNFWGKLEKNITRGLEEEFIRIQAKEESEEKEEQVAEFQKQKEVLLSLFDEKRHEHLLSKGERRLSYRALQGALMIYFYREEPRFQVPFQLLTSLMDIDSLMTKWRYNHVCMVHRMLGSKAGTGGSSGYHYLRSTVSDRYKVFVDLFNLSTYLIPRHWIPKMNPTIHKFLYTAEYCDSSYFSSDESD
Reported EC50 values for a set of compounds
The answer is to be given in µM; state only the numeric part.

OC1c2nccn2CCC1C1c2ccccc2-c2cncn21 (single isomer, unassigned) [Example 88d]; 21

// below: EC50 requested for another compound
Query block: Dear colleague, I am looking for the recorded EC50 of the following compound: Nc1cc2n(n1)CC[C@H]([C@H]1c3ccccc3-c3cncn31)[C@H]2O [Example 161a]
Result block: 18
